- assay-notes: log P determination by HPLC on reversed-phase (C18) columns, OECD Guideline 117
- Assay type: physicochemical
- measurement-conditions: HPLC, neutral range pH 7.8, 0.001 molar aqueous ammonium hydrogencarbonate/acetonitrile; read-out: logp-neutral
readout-type: chromatographic logP
One number for each entry.

Data request: Given the compound CN(C(=O)c1cnc(-c2cc3ccccc3o2)n1C)c1cccnc1 [Example 70] , what is its reported chromatographic logP?
Data returned: 1.87

----------
- assay-notes: log P determination by HPLC on reversed-phase (C18) columns, OECD Guideline 117
- Type: physicochemical
- measurement-conditions: HPLC, neutral range pH 7.8, 0.001 molar aqueous ammonium hydrogencarbonate/acetonitrile
readout-type: logp-neutral

Below: 5 molecules and their reported logp-neutral.
given-smiles: CN(C(=O)c1cnc(-c2cccc(C#N)c2)n1C)c1cccnc1
logp-neutral: 1.33
--
given-smiles: COc1cc(C#N)cc(-c2ncc(C(=O)N(C)c3cccnc3)n2C)c1
logp-neutral: 1.57
--
given-smiles: COc1ccc(C#N)cc1-c1ncc(C(=O)N(C)c2cccnc2)n1C
logp-neutral: 1.37
--
given-smiles: CN(C(=O)c1cnc(-c2cccc3c2OCO3)n1C)c1cccnc1
logp-neutral: 1.44
--
given-smiles: CN(C(=O)c1cnc(-c2ccc(Cl)c(C#N)c2)n1C)c1cccnc1
logp-neutral: 1.69

State the recorded logp-neutral for every item in the following list.
1. CN(C(=O)c1cnc(-c2cc(C#N)cc(C(F)(F)F)c2)n1C)c1cccnc1
2. COCc1cccc(-c2ncc(C(=O)N(C)c3cccnc3)n2C)c1
3. CCN(C(=O)c1cnc(-c2ccccn2)n1C)c1cccnc1
4. COc1ccc(-c2ncc(C(=O)N(C)c3cccnc3)n2C)cc1[N+](=O)[O-]
5. CN(C(=O)c1cnc(-c2cc(Cl)cc(C#N)c2)n1C)c1cccnc1
6. CN(C(=O)c1cnc(-c2ccc(F)c(C#N)c2)n1C)c1cccnc1

Data returned:
1.96
1.43
1.39
1.53
1.74
1.52
